Listing: recovery at 60 min, 10 μM of selected molecules
Tested on: P-gp
METHOD NOTES: In-vitro absorption, Caco-2 A-B permeability
Type: in vitro ADME, human
MEASUREMENT PARAMETERS: human, Caco-2, pH 7.4, with verapamil 100 μM on both the A and B sides, Caco-2 A-B; in the presence of verapamil; read-out: Percent Recovery 1st
Counter-ions that a name gives are not always drawn. Non-standard residues stand in square brackets, D forms with d. Residues, ends and D or L forms follow the SMILES beside them. Dopa = N[C@@H](Cc1ccc(O)c(O)c1)C(=O)O

MOLECULE	TARGET OR TEST SYSTEM	UNIT STRING	recovery at 60 min, 10 μM
NC(=O)C[C@H](NC(=O)[C@@H](N)Cc1ccc(O)c(O)c1)C(=O)O [LD-Asn TFA salt, Levodopa Asparagine TFA Salt] (H-[Dopa]-Asn-OH)	P-gp	%	65
N[C@@H](Cc1ccc(O)c(O)c1)C(=O)O [LD (control), L-3,4-dihydroxyphenylalanine, reference compound]	P-gp	%	63
N[C@@H](Cc1ccc(O)c(O)c1)C(=O)NCC(=O)O [LD-Gly TFA salt, Levodopa Glycine TFA Salt]	P-gp	%	60
NCCCC[C@H](NC(=O)[C@@H](N)Cc1ccc(O)c(O)c1)C(=O)O [LD-Lys TFA salt, Levodopa Lysine TFA Salt] (H-[Dopa]-Lys-OH)	P-gp	%	33
NC(=O)CC[C@H](NC(=O)[C@@H](N)Cc1ccc(O)c(O)c1)C(=O)O [LD-Gln TFA salt, Levodopa Glutamine TFA Salt] (H-[Dopa]-Gln-OH)	P-gp	%	74

---

Listed here are compounds together with their documented recovery at 60 min, 10 μM.
Test system: P-gp
METHOD NOTES: In-vitro absorption, Caco-2 A-B permeability
Assay type: in vitro ADME, human
MEASUREMENT PARAMETERS: human, Caco-2, pH 7.4, with verapamil 100 μM on both the A and B sides, Caco-2 A-B; in the presence of verapamil; read-out: Percent Recovery Mean
Where a name gives a salt, the structure may show the parent alone. Non-standard residues stand in square brackets, D forms with d. Residues, ends and D or L forms follow the SMILES beside them. Dopa = N[C@@H](Cc1ccc(O)c(O)c1)C(=O)O

COMPOUND	recovery at 60 min, 10 μM [%]
N=C(N)NCCC[C@H](NC(=O)[C@@H](N)Cc1ccc(O)c(O)c1)C(=O)O [LD-Arg TFA salt, Levodopa Arginine TFA Salt]	25
NC(=O)CC[C@H](NC(=O)[C@@H](N)Cc1ccc(O)c(O)c1)C(=O)O [LD-Gln TFA salt, Levodopa Glutamine TFA Salt] (H-[Dopa]-Gln-OH)	71
N[C@@H](CSC[C@@H](NC(=O)[C@@H](N)Cc1ccc(O)c(O)c1)C(=O)O)C(=O)O (single isomer, unassigned; peak 1) [LD-LA1 TFA salt, Levodopa Lanthionine Peak 1 TFA Salt]	62
N[C@@H](Cc1ccc(O)c(O)c1)C(=O)NCC(=O)O [LD-Gly TFA salt, Levodopa Glycine TFA Salt]	59
N[C@@H](Cc1ccc(O)c(O)c1)C(=O)N[C@@H](Cc1ccc(O)cc1)C(=O)O [LD-Tyr TFA salt, Levodopa Tyrosine TFA Salt] (H-[Dopa]-Tyr-OH)	40
NC(=O)C[C@H](NC(=O)[C@@H](N)Cc1ccc(O)c(O)c1)C(=O)O [LD-Asn TFA salt, Levodopa Asparagine TFA Salt] (H-[Dopa]-Asn-OH)	63
N[C@@H](CSC[C@H](NC(=O)[C@@H](N)Cc1ccc(O)c(O)c1)C(=O)O)C(=O)O (single isomer, unassigned; peak 2) [LD-LA2 TFA salt, Levodopa Lanthionine Peak 2 TFA Salt]	88
NCCCC[C@H](NC(=O)[C@@H](N)Cc1ccc(O)c(O)c1)C(=O)O [LD-Lys TFA salt, Levodopa Lysine TFA Salt] (H-[Dopa]-Lys-OH)	33
N[C@@H](Cc1ccc(O)c(O)c1)C(=O)N[C@@H](Cc1c[nH]c2ccccc12)C(=O)O [LD-Trp TFA salt, Levodopa Tryptophan] (H-[Dopa]-Trp-OH)	47
N[C@@H](Cc1ccc(O)c(O)c1)C(=O)O [LD (control), L-3,4-dihydroxyphenylalanine, reference compound]	52

---

METHOD NOTES: Protein binding, solid phase extraction (SPE) method
Assay type: in vitro ADME, human
MEASUREMENT PARAMETERS: human, human plasma, 1.0E−05M; SPE sample preparation; read-out: % Recovery 1st
Where a name gives a salt, the structure may show the parent alone. Non-standard residues stand in square brackets, D forms with d. Residues, ends and D or L forms follow the SMILES beside them. Dopa = N[C@@H](Cc1ccc(O)c(O)c1)C(=O)O

COMPOUND	recovery at 10 μM [%]
N[C@@H](Cc1ccc(O)c(O)c1)C(=O)N[C@@H](CCC(=O)O)C(=O)O [LD-Glu TFA salt, Levodopa Glutamic Acid TFA Salt] (H-[Dopa]-Glu-OH)	110
N[C@@H](Cc1ccc(O)c(O)c1)C(=O)N[C@@H](CC(=O)O)C(=O)O [LD-Asp TFA salt, Levodopa Aspartic Acid] (H-[Dopa]-Asp-OH)	55
N[C@@H](Cc1ccc(O)c(O)c1)C(=O)N[C@@H](Cc1ccc(O)cc1)C(=O)O [LD-Tyr TFA salt, Levodopa Tyrosine TFA Salt] (H-[Dopa]-Tyr-OH)	64
N[C@@H](Cc1ccc(O)c(O)c1)C(=O)O [LD (control), L-3,4-dihydroxyphenylalanine, reference compound]	59
N[C@@H](CSC[C@H](NC(=O)[C@@H](N)Cc1ccc(O)c(O)c1)C(=O)O)C(=O)O (single isomer, unassigned; peak 2) [LD-LA2 TFA salt, Levodopa Lanthionine Peak 2 TFA Salt]	39
NCCCC[C@H](NC(=O)[C@@H](N)Cc1ccc(O)c(O)c1)C(=O)O [LD-Lys TFA salt, Levodopa Lysine TFA Salt] (H-[Dopa]-Lys-OH)	79
N=C(N)NCCC[C@H](NC(=O)[C@@H](N)Cc1ccc(O)c(O)c1)C(=O)O [LD-Arg TFA salt, Levodopa Arginine TFA Salt]	79

---

Tested on: human plasma
METHOD NOTES: Protein binding, equilibrium dialysis method
Assay type: in vitro ADME
MEASUREMENT PARAMETERS: 1.0E-05M; 37° C., 4 h
Counter-ions that a name gives are not always drawn. Non-standard residues stand in square brackets, D forms with d. Residues, ends and D or L forms follow the SMILES beside them. Dopa = N[C@@H](Cc1ccc(O)c(O)c1)C(=O)O
hey, just use Criterion met if measured % Protein Bound 2nd is less than 50%, otherwise Criterion not met

MOLECULE	TARGET OR TEST SYSTEM	CLASS NAME
NC(=O)CC[C@H](NC(=O)[C@@H](N)Cc1ccc(O)c(O)c1)C(=O)O [LD-Gln TFA salt, Levodopa Glutamine TFA Salt] (H-[Dopa]-Gln-OH)	human plasma	Criterion not met
N[C@@H](CSC[C@@H](NC(=O)[C@@H](N)Cc1ccc(O)c(O)c1)C(=O)O)C(=O)O (single isomer, unassigned; peak 1) [LD-LA1 TFA salt, Levodopa Lanthionine Peak 1 TFA Salt]	human plasma	Criterion met
NCCCC[C@H](NC(=O)[C@@H](N)Cc1ccc(O)c(O)c1)C(=O)O [LD-Lys TFA salt, Levodopa Lysine TFA Salt] (H-[Dopa]-Lys-OH)	human plasma	Criterion not met
N[C@@H](Cc1ccc(O)c(O)c1)C(=O)N[C@@H](CC(=O)O)C(=O)O [LD-Asp TFA salt, Levodopa Aspartic Acid] (H-[Dopa]-Asp-OH)	human plasma	Criterion not met
N[C@@H](Cc1ccc(O)c(O)c1)C(=O)N[C@@H](Cc1c[nH]c2ccccc12)C(=O)O [LD-Trp TFA salt, Levodopa Tryptophan] (H-[Dopa]-Trp-OH)	human plasma	Criterion not met
N=C(N)NCCC[C@H](NC(=O)[C@@H](N)Cc1ccc(O)c(O)c1)C(=O)O [LD-Arg TFA salt, Levodopa Arginine TFA Salt]	human plasma	Criterion met

---

METHOD NOTES: In-vitro metabolism of LDAA compounds using liver microsomes
Type: in vitro ADME, human
MEASUREMENT PARAMETERS: incubation time 15 minutes; 1.0E−07M
Structures can show the parent of a compound that is named as a salt. Non-standard residues stand in square brackets, D forms with d. Residues, ends and D or L forms follow the SMILES beside them. Dopa = N[C@@H](Cc1ccc(O)c(O)c1)C(=O)O
Quick reference for % Compound Remaining 1st among some compounds
ENDPOINT: % Compound Remaining 1st

COMPOUND	ENDPOINT	RESULT
N[C@@H](Cc1ccc(O)c(O)c1)C(=O)NCC(=O)O [LD-Gly TFA salt, Levodopa Glycine TFA Salt]	% Compound Remaining 1st	103.7%
N[C@@H](Cc1ccc(O)c(O)c1)C(=O)N[C@@H](Cc1ccc(O)cc1)C(=O)O [LD-Tyr TFA salt, Levodopa Tyrosine TFA Salt] (H-[Dopa]-Tyr-OH)	% Compound Remaining 1st	90.7%
N[C@@H](Cc1ccc(O)c(O)c1)C(=O)N[C@@H](Cc1c[nH]c2ccccc12)C(=O)O [LD-Trp TFA salt, Levodopa Tryptophan] (H-[Dopa]-Trp-OH)	% Compound Remaining 1st	108.6%
N[C@@H](Cc1ccc(O)c(O)c1)C(=O)O [LD (control), L-3,4-dihydroxyphenylalanine, reference compound]	% Compound Remaining 1st	102.5%
NC(=O)CC[C@H](NC(=O)[C@@H](N)Cc1ccc(O)c(O)c1)C(=O)O [LD-Gln TFA salt, Levodopa Glutamine TFA Salt] (H-[Dopa]-Gln-OH)	% Compound Remaining 1st	103.4%
N[C@@H](CSC[C@H](NC(=O)[C@@H](N)Cc1ccc(O)c(O)c1)C(=O)O)C(=O)O (single isomer, unassigned; peak 2) [LD-LA2 TFA salt, Levodopa Lanthionine Peak 2 TFA Salt]	% Compound Remaining 1st	122.9%
NC(=O)C[C@H](NC(=O)[C@@H](N)Cc1ccc(O)c(O)c1)C(=O)O [LD-Asn TFA salt, Levodopa Asparagine TFA Salt] (H-[Dopa]-Asn-OH)	% Compound Remaining 1st	92.8%
N=C(N)NCCC[C@H](NC(=O)[C@@H](N)Cc1ccc(O)c(O)c1)C(=O)O [LD-Arg TFA salt, Levodopa Arginine TFA Salt]	% Compound Remaining 1st	109.7%
